VALUE_TYPE: melting point

Completed entries (count: 6):
molecule=Oc1ccccc1CNc1cncc(Br)c1 value_type="melting point" recorded_result="184 °C"
molecule=CCOC(=O)c1nocc1Cn1nnnc1-c1cccc(Cl)c1Cl value_type="melting point" recorded_result="161 to 163 °C"
molecule=CCC(=O)NS(=O)(=O)c1ccc(-c2cc(-c3nc(-c4ccc(C(F)(F)F)cc4)cc(C(F)(F)F)n3)ccn2)s1 value_type="melting point" recorded_result="257 °C"
molecule=O=C(O)c1cc2cc(Cl)ccc2nc1N[C@@H](Cc1ccc([N+](=O)[O-])cc1)C(=O)O value_type="melting point" recorded_result="174 to 176 °C"
molecule="COc1c(C(O)CNC(C)(C)Cc2ccccc2)ccc(O)c1O (stereo not given)" value_type="melting point" recorded_result="149 to 150 °C"
molecule=COCc1nc(N)nc(N)c1-c1cc(Cl)cc(Cl)c1 value_type="melting point" recorded_result="228 to 230 °C"

Would you kindly look at the next entry?
Ask | Endpoint output: melting point of COc1ccc(C=C2NC(=O)NC2=O)cc1OC . Value?
Reply | 153 to 158 °C
